Below, each entry is listed alongside its reported EtHalogenated.
Experiment: End-tidal gas analysis
Assay type: in vivo, rabbit
Settings: end-tidal; Reperfusion 2 h
READOUT_TYPE: EtHalogenated (%)

>  <MOLECULE>
FC(F)OC(F)(F)C(F)Cl (stereo not shown) [ENF, enflurane]

>  <READOUT_TYPE>
EtHalogenated

>  <OBSERVED_VALUE>
0.00

$$$$
>  <MOLECULE>
FC(F)OC(F)C(F)(F)F (stereo not shown) [DES, desflurane]

>  <READOUT_TYPE>
EtHalogenated

>  <OBSERVED_VALUE>
0.00

$$$$
>  <MOLECULE>
FCOC(C(F)(F)F)C(F)(F)F [SEVO, sevoflurane]

>  <READOUT_TYPE>
EtHalogenated

>  <OBSERVED_VALUE>
0.04

$$$$
>  <MOLECULE>
FC(F)OC(Cl)C(F)(F)F (stereo not shown) [ISO, isoflurane]

>  <READOUT_TYPE>
EtHalogenated

>  <OBSERVED_VALUE>
0.00

$$$$
